Some binders, each annotated with its measured Mean % WT Binding.
Target: human CD33 K77A (human, UniProt P20138 18-364)
Sequence (P20138 18-364 K77A limits assumed): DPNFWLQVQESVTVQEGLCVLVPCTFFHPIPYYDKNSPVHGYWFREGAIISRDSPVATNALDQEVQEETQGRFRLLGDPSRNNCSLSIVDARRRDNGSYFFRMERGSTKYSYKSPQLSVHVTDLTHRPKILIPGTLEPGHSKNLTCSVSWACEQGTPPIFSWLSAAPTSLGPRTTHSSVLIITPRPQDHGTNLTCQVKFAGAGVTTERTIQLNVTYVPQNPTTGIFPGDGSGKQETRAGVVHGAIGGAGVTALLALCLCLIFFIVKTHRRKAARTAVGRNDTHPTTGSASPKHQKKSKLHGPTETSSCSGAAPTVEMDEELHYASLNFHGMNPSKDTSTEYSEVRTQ
Assay: alanine scan, flow cytometry;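 note: HEK293-T cells transiently expressing single-residue alanine mutants of CD33 (alanine swapped to serine), antibody binding read by fluorescence in duplicate, background-subtracted, expressed relative to wild-type CD33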
Reply numerically in % WT, unit not repeated.

For orientation, consider the following solved cases.
[[record]]
binder = "Refmab #3 (antibody, V domains shown, Full-length format is human IgG1 Fc silent (PG-LALA); The alanine scan used IgG or Fab) VH: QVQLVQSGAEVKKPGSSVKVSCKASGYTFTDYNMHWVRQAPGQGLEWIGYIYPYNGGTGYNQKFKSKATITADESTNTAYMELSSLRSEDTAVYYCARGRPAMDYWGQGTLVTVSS VL: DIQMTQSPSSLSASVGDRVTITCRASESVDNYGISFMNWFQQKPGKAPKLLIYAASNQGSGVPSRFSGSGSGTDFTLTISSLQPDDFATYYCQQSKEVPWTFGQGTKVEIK"
unit_abbrev = "% WT"
result_number = 192

[[record]]
binder = "Refmab #1 (antibody, V domains shown, Full-length format is human IgG1 (Absolute Antibody Ab00283-10.0); The alanine scan used IgG or Fab; also called hP67.6) VH: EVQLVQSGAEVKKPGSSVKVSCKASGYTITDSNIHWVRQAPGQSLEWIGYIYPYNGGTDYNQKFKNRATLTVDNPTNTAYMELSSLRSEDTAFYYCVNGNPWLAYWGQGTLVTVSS VL: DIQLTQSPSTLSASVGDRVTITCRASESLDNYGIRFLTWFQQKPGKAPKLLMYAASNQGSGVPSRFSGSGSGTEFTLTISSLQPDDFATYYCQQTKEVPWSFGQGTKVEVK"
unit_abbrev = "% WT"
result_number = 95.6

[[record]]
binder = "Refmab #4 (antibody, V domains shown, Full-length format is human IgG1 Fc silent (PG-LALA); The alanine scan used IgG or Fab) VH: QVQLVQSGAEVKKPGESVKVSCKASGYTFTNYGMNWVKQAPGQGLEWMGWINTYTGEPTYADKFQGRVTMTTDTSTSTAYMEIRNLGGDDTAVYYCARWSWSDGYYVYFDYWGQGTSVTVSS VL: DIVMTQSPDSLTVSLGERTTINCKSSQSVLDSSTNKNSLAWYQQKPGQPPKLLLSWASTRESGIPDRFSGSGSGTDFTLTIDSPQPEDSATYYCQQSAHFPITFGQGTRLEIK"
unit_abbrev = "% WT"
result_number = 123


Here is another binder to look at.
Sample Refmab #2 (antibody, V domains shown, Full-length format is human IgG1 Fc silent (PG-LALA); The alanine scan used IgG or Fab) VH: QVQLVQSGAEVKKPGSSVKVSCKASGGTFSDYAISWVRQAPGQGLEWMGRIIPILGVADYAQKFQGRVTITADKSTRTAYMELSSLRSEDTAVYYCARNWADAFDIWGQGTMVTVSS VL: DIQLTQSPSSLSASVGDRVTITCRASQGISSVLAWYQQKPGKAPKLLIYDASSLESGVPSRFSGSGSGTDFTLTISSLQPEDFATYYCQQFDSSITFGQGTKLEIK — what was its Mean % WT Binding?
123
